biological target: T1, human serum albumin (human, UniProt P02768 25-609); assay: phage ELISA for specificity: 50 ng of each protein coated per well, absorbance at 450 nm; six bars per clone in the order of the legend: VEGFR2, human IgG, monoclonal antibody, enzyme, HSA, blocked well
T1 construct: also called HSA
T1 sequence (P02768 25-609 limits assumed): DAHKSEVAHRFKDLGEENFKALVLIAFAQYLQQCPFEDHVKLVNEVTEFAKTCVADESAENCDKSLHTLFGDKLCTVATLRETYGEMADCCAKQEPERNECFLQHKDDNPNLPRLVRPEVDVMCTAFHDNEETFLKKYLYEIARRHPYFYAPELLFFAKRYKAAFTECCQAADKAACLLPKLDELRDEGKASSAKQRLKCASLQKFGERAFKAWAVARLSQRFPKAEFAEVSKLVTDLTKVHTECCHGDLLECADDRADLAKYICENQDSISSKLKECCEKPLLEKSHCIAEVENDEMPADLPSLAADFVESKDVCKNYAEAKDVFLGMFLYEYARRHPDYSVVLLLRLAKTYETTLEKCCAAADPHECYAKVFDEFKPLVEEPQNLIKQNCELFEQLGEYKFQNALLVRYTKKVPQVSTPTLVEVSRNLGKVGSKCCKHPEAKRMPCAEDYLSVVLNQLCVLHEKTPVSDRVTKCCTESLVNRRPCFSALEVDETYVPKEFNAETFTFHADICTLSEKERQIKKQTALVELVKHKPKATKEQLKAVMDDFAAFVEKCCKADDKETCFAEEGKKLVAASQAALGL
Where no end group is shown, it is not given here.
metric: binding result

binder: MADEEKLPPGWYKMWSSPGRVLYVNDITHAHQWERPSG (designed binder, not shown: large carriers, also: fused to gpIII (M13 phage display), linker not given here) [clones E1, E3, H3, C4, E4, G4 and H6, phage-displayed modified Pin1 WW domain peptide]
test.result: no binding

binder: MADEEKLPPGWYKMWSSPGRVLYVNDITHAHRWERPSG (designed binder, not shown: large carriers, also: fused to gpIII (M13 phage display), linker not given here, also called WW-B1) [clones B1 and H1, phage-displayed modified Pin1 WW domain peptide]
test.result: no binding

binder: MADEEKLPPGWCKFWSTAGRVIYINRITGAKQWERPSG (designed binder, not shown: large carriers, also: fused to gpIII (M13 phage display), linker not given here) [clone A1, phage-displayed modified Pin1 WW domain peptide]
test.result: no binding

binder: MADEEKLPPGWGKGWSPRGRVWYTNRTTVAAQWERPSG (designed binder, not shown: large carriers, also: fused to gpIII (M13 phage display), linker not given here) [clone H4, phage-displayed modified Pin1 WW domain peptide]
test.result: no binding

Values compiled from patent US20140005126A1.
